Value source: paper PMC9635468

Test system: MCF7
Test: Cytotoxicity screening, SRB assay, MCF7
Format: cell-based, human
Details: Homo sapiens, MCF7, 48 h
Note to self: use yes only for IC50 readings below 10 µg/mL; a reading exactly at 10 µg/mL still gets no.

>  <COMPOUND>
c1coc(-c2cc(-c3cccs3)n3cnnc3n2)c1

>  <TARGET_UNDER_TEST>
MCF7

>  <CLASSIFICATION>
no

$$$$
>  <COMPOUND>
N#Cc1c(-c2cccs2)cc(-c2ccco2)nc1OCC(=O)NN

>  <TARGET_UNDER_TEST>
MCF7

>  <CLASSIFICATION>
no

$$$$
>  <COMPOUND>
N#Cc1c(-c2cccs2)cc(-c2ccco2)nc1OCC(=O)N/N=C1/C(=O)Nc2ccccc21

>  <TARGET_UNDER_TEST>
MCF7

>  <CLASSIFICATION>
yes

$$$$
>  <COMPOUND>
Nc1nn2c(-c3cccs3)cc(-c3ccco3)nc2c1/N=N/c1ccc([N+](=O)[O-])cc1

>  <TARGET_UNDER_TEST>
MCF7

>  <CLASSIFICATION>
no

$$$$
>  <COMPOUND>
N#Cc1c(-c2cccs2)cc(-c2ccco2)nc1-c1c[nH]c2ccccc12

>  <TARGET_UNDER_TEST>
MCF7

>  <CLASSIFICATION>
yes

$$$$
>  <COMPOUND>
Clc1nc(-c2ccco2)cc(-c2cccs2)c1-c1nnn[nH]1

>  <TARGET_UNDER_TEST>
MCF7

>  <CLASSIFICATION>
no

$$$$
>  <COMPOUND>
N#Cc1c(-c2cccs2)cc(-c2ccco2)[nH]c1=O

>  <TARGET_UNDER_TEST>
MCF7

>  <CLASSIFICATION>
yes

$$$$
>  <COMPOUND>
N#Cc1c(-c2cccs2)cc(-c2ccco2)nc1OCC(=O)N/N=C/c1ccc([N+](=O)[O-])cc1

>  <TARGET_UNDER_TEST>
MCF7

>  <CLASSIFICATION>
no

$$$$
>  <COMPOUND>
Oc1n[nH]c2nc(-c3ccco3)cc(-c3cccs3)c12

>  <TARGET_UNDER_TEST>
MCF7

>  <CLASSIFICATION>
yes

$$$$
>  <COMPOUND>
c1coc(-c2cc(-c3cccs3)n3nnnc3n2)c1

>  <TARGET_UNDER_TEST>
MCF7

>  <CLASSIFICATION>
no

$$$$
>  <COMPOUND>
N#Cc1c(-c2cccs2)cc(-c2ccco2)nc1NN

>  <TARGET_UNDER_TEST>
MCF7

>  <CLASSIFICATION>
no

$$$$
>  <COMPOUND>
N#Cc1c(-c2cccs2)cc(-c2ccco2)nc1Cl

>  <TARGET_UNDER_TEST>
MCF7

>  <CLASSIFICATION>
no

$$$$
>  <COMPOUND>
CCOC(=O)COc1nc(-c2ccco2)cc(-c2cccs2)c1C#N

>  <TARGET_UNDER_TEST>
MCF7

>  <CLASSIFICATION>
no

$$$$
>  <COMPOUND>
C1=C(c2ccco2)n2c(nc3ccccc32)SC1c1cccs1 (centres unmarked)

>  <TARGET_UNDER_TEST>
MCF7

>  <CLASSIFICATION>
no

$$$$
